Molecular target: HLA-B*53:01
Test: IEDB peptide-MHC binding, purified MHC/competitive/fluorescence; bounds were set here for any values at or beyond the usual limits of such assays
Conditions: source organism: Monodelphis domestica
Measured Metric: IC50

## Input Please look up its IC50: `YSLEYFQFVKK`
## Output ≥ 20 µM

* * *

Target: HLA-A*69:01
Assay: IEDB peptide-MHC binding, purified MHC/competitive/fluorescence; filed as Kd, often an IC50 or EC50 that approximates it; bounds were set here for any values at or beyond the usual limits of such assays
Conditions: source organism: Four Corners hantavirus
pKd: −log10 of the molar value.
Measured Metric: pKd

## Input Please look up its pKd: `KARNIISPV`
## Output ≤ 4.70

* * *

Target: HLA-B*15:09
Assay: IEDB peptide-MHC binding, purified MHC/direct/fluorescence; filed as Kd, often an IC50 or EC50 that approximates it; bounds were set here for any values at or beyond the usual limits of such assays
Conditions: source organism: Vibrio vulnificus CMCP6
Measured Metric: Kd

## Input Lookup: Kd / HLA-B*15:09 / `ASEELMDKY`
## Output ≥ 20 µM

* * *

Molecular target: HLA-A*03:01
Assay: IEDB peptide-MHC binding, purified MHC/direct/fluorescence; filed as Kd, often an IC50 or EC50 that approximates it; bounds were set here for any values at or beyond the usual limits of such assays
Conditions: source organism: Cryptosporidium parvum Iowa II
pKd: −log10 of the molar value.
Measured Metric: pKd

## Input Lookup: pKd / HLA-A*03:01 / `LPWFLDTTI`
## Output ≤ 4.70

* * *

Molecular target: HLA-A*11:01
Assay: IEDB peptide-MHC binding, purified MHC/direct/fluorescence; filed as Kd, often an IC50 or EC50 that approximates it; bounds were set here for any values at or beyond the usual limits of such assays
Settings: source organism: West Nile virus
pKd: −log10 of the molar value.
Measured Metric: pKd

## Input Please look up its pKd: `VLRKRWTAK`
## Output ≤ 4.70

* * *

Target: HLA-B*46:01
Experiment: IEDB peptide-MHC binding, purified MHC/direct/fluorescence; filed as Kd, often an IC50 or EC50 that approximates it; bounds were set here for any values at or beyond the usual limits of such assays
Details: source organism: Cryptosporidium parvum Iowa II
Measured Metric: Kd

## Input Please look up its Kd: `LPWFLDTTI`
## Output ≥ 20 µM

* * *

Target: HLA-A*02:01
Experiment: IEDB peptide-MHC binding, purified MHC/competitive/radioactivity; filed as Kd, often an IC50 or EC50 that approximates it; bounds were set here for any values at or beyond the usual limits of such assays
Details: source organism: Dengue virus 3 China/80-2/1980
Measured Metric: Kd (nM)
The figure you give is taken to be in nM; do not add the unit.

## Input Please look up its Kd: `GMLWMADVPL`
## Output 4.89

## Input Please look up its Kd: `FVGKTVWFV`
## Output 4.65

* * *

Target: HLA-A*24:02
Experiment: IEDB peptide-MHC binding, purified MHC/competitive/fluorescence; filed as Kd, often an IC50 or EC50 that approximates it; bounds were set here for any values at or beyond the usual limits of such assays
Details: source organism: Pseudomonas sp. MIS38
pKd: −log10 of the molar value.
Measured Metric: pKd

## Input Please look up its pKd: `YMLKDSAPT`
## Output ≤ 4.70

* * *

Molecular target: HLA-B*18:01
Assay: IEDB peptide-MHC binding, purified MHC/direct/fluorescence; filed as Kd, often an IC50 or EC50 that approximates it; bounds were set here for any values at or beyond the usual limits of such assays
Details: source organism: Bacillus cereus
Measured Metric: Kd

## Input Please look up its Kd: `VEEDIRWKF`
## Output 19.2 nM

* * *

Molecular target: HLA-A*24:02
Test: IEDB peptide-MHC binding, purified MHC/direct/fluorescence; filed as Kd, often an IC50 or EC50 that approximates it; bounds were set here for any values at or beyond the usual limits of such assays
Settings: source organism: Influenza A virus (A/chicken/Hubei/wk/1997(H5N1))
Measured Metric: Kd

## Input Lookup: Kd / HLA-A*24:02 / `NPALRMKWM`
## Output ≥ 20 µM

* * *

Molecular target: HLA-C*08:02
Assay: IEDB peptide-MHC binding, purified MHC/direct/fluorescence; filed as Kd, often an IC50 or EC50 that approximates it; bounds were set here for any values at or beyond the usual limits of such assays
Details: source organism: human gammaherpesvirus 4
Measured Metric: Kd
Write the numeric value and follow it with the unit.

## Input Please look up its Kd: `YAAPQLFPV`
## Output 69 nM

* * *

Biological target: HLA-A*26:01
Assay: IEDB peptide-MHC binding, purified MHC/competitive/fluorescence; filed as Kd, often an IC50 or EC50 that approximates it; bounds were set here for any values at or beyond the usual limits of such assays
Conditions: source organism: Four Corners hantavirus
Measured Metric: Kd

## Input Please look up its Kd: `KARNIISPV`
## Output ≥ 20 µM

* * *

Target: HLA-B*39:01
Assay: IEDB peptide-MHC binding, purified MHC/direct/fluorescence; filed as Kd, often an IC50 or EC50 that approximates it; bounds were set here for any values at or beyond the usual limits of such assays
Conditions: source organism: Mammarenavirus lassaense
Measured Metric: Kd (nM)
The figure you give is taken to be in nM; do not add the unit.

## Input Please look up its Kd: `NQFGTMPSL`
## Output 1.1

* * *

Target: HLA-B*18:01
Experiment: IEDB peptide-MHC binding, purified MHC/competitive/fluorescence; bounds were set here for any values at or beyond the usual limits of such assays
Settings: source organism: Gorilla gorilla gorilla
Measured Metric: IC50

## Input Please look up its IC50: `RYSHWTKL`
## Output ≥ 20 µM

* * *

Target: HLA-A*02:03
Assay: IEDB peptide-MHC binding, purified MHC/competitive/radioactivity; filed as Kd, often an IC50 or EC50 that approximates it; bounds were set here for any values at or beyond the usual limits of such assays
Details: source organism: Hepacivirus hominis
pKd: −log10 of the molar value.
Measured Metric: pKd

## Input Please look up its pKd: `RPALVFDITK`
## Output ≤ 4.15

* * *

Would you mind telling me the reported IC50 of each entry?
Biological target: HLA-B*15:01
Assay: IEDB peptide-MHC binding, purified MHC/competitive/fluorescence; bounds were set here for any values at or beyond the usual limits of such assays
Details: source organism: Vaccinia virus WR
The figure you give is taken to be in µM; do not add the unit.

## Input Please look up its IC50: `KMDNGTLEF`
## Output 24.4

## Input Please look up its IC50: `SLFTEQAFY`
## Output 3.93

* * *

Biological target: HLA-A*68:02
Assay: IEDB peptide-MHC binding, purified MHC/direct/fluorescence; filed as Kd, often an IC50 or EC50 that approximates it; bounds were set here for any values at or beyond the usual limits of such assays
Conditions: source organism: Camelpox virus M-96
pKd: −log10 of the molar value.
Would you mind telling me the reported pKd of each entry?

## Input Please look up its pKd: `IHIPGDTLF`
## Output ≤ 4.70

## Input Please look up its pKd: `SLFTEQAFY`
## Output ≤ 4.70

* * *

Molecular target: HLA-B*15:17
Experiment: IEDB peptide-MHC binding, purified MHC/competitive/fluorescence; filed as Kd, often an IC50 or EC50 that approximates it; bounds were set here for any values at or beyond the usual limits of such assays
Conditions: source organism: Giardia lamblia ATCC 50803
pKd: −log10 of the molar value.
Measured Metric: pKd

## Input Please look up its pKd: `RIYDPLWFQ`
## Output ≤ 4.70

* * *

Molecular target: HLA-A*23:01
Assay: IEDB peptide-MHC binding, purified MHC/competitive/fluorescence; filed as Kd, often an IC50 or EC50 that approximates it; bounds were set here for any values at or beyond the usual limits of such assays
Conditions: source organism: Yersinia enterocolitica (type O:8)
Measured Metric: Kd

## Input Please look up its Kd: `TYQVYRYII`
## Output ≤ 0.1 nM

* * *

Target: HLA-A*01:01
Experiment: IEDB peptide-MHC binding, purified MHC/competitive/radioactivity; filed as Kd, often an IC50 or EC50 that approximates it; bounds were set here for any values at or beyond the usual limits of such assays
Conditions: source organism: Mammarenavirus lassaense
Measured Metric: Kd

## Input Please look up its Kd: `QYNLSHSYAV`
## Output ≥ 70.4 µM

* * *

Molecular target: HLA-B*40:01
Experiment: IEDB peptide-MHC binding, purified MHC/direct/fluorescence; filed as Kd, often an IC50 or EC50 that approximates it; bounds were set here for any values at or beyond the usual limits of such assays
Conditions: source organism: Mycobacterium tuberculosis
pKd: −log10 of the molar value.
Would you mind telling me the reported pKd of each entry?

## Input Please look up its pKd: `YPARVKCAL`
## Output ≤ 4.70

## Input Please look up its pKd: `RPRCAYLPF`
## Output ≤ 4.70
